Sourced from patent US10723699B2

Listed compounds paired with reported pEC50
- measured.target: G protein-coupled receptor 119 (GPR-119) (Mesocricetus auratus)
- Construct: hamster-derived β-cells containing G protein-coupled receptor 119 (GPR-119), HIT-T15 cells; host or cells: HIT-T15 (hamster pancreatic β-cells)
- Sequence (A0A1U8CD06 1-334): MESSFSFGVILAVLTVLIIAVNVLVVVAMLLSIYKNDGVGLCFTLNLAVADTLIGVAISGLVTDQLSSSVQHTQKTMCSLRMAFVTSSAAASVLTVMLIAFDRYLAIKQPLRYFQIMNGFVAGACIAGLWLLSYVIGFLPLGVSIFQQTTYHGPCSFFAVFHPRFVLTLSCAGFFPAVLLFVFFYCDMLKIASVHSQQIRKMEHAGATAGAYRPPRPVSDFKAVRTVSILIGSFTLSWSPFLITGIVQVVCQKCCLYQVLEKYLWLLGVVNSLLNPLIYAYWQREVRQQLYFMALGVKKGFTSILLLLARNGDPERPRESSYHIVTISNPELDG
- test.description: cAMP activity in HIT-T15 cells (cAMP dynamic kit, FRET)
- Assay type: cell-based, hamster
- test.settings: Table 2, read-out: EC50 value
- Method: To check whether the cyclohexene derivatives according to the present invention activate cyclic adenosine monophosphate (cAMP), experiments were carried out, as follows. The HIT-T15 cells were plated on a 96-well plate at 60,000 cells per well. […] The cyclic adenosine monophosphate (cAMP) activity was measured according to the manufacturer's instruction using a cAMP dynamic kit commercially available from Cis Bio Inc. (Bedford, Mass.). […] Fluorescence was read in Flex Station (Molecular Devices). […]
pEC50: −log10 of the molar value.

Worked cases, answers included:
CCc1cnc(N2CCC(COc3ccc(C4=CCC(C(=O)N5CCC[C@H]5CO)CC4)cc3)CC2)nc1 (single isomer, unassigned; (+)) [Example 466] : ≥ 7.30
CCc1cnc(N2CCC(COc3ccc(C4=CCC(C(=O)N5CCOCC5)CC4)cc3F)CC2)nc1 (stereo not drawn) [Example 299] : ≥ 7.30
CCc1cnc(N2CCC(COc3ccc(C4=CCC(C(=O)N5CCC(C(N)=O)CC5)CC4)cc3F)CC2)nc1 (stereo not drawn) [Example 324] : ≥ 7.30
CCc1cnc(N2CCC(COc3ccc(C4=CCC(C(=O)N5CCSCC5)CC4)c(F)c3)CC2)nc1 (stereo not drawn) [Example 423] : ≥ 7.30

Form field pEC50, entry CCc1cnc(N2CCC(COc3ccc(C4=CCC(C(=O)N5CCC5)CC4)c(F)c3)CC2)nc1 (stereo not drawn) [Example 425] : ≥ 7.30
